experimental.target: T1, bacterially produced human IL-6 (human, UniProt P05231 30-212)
T1 construct: also called bactIL-6; prokaryotic IL-6
experimental.details: SPR; periplasmic fraction
measured.endpoint: kon (M⁻¹ s⁻¹)
Answers are plain numbers, in M⁻¹ s⁻¹.

Could you report kon for every entry in the following list?
1. Fab 29B11 (Fab, V domains shown, Fab) VH: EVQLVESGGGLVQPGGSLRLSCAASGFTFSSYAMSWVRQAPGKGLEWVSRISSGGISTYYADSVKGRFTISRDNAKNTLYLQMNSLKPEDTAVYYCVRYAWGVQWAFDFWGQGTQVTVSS VL: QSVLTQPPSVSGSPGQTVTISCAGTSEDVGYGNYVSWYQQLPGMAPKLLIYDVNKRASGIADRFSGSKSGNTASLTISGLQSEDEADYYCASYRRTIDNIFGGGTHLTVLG
2. Fab 48C10 (Fab, V domains shown, VL-shuffled Fab of 29B11, periplasmic fraction) VH: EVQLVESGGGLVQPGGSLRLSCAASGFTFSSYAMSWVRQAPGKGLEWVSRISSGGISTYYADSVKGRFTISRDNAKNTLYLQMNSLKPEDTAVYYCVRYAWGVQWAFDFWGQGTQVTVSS VL: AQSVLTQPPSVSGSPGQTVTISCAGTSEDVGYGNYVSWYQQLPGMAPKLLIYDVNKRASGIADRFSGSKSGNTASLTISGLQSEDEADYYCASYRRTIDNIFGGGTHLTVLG
3. Fab 55H1 (Fab, V domains shown, VL-shuffled Fab of 29B11, periplasmic fraction; also called 55H1c) VH: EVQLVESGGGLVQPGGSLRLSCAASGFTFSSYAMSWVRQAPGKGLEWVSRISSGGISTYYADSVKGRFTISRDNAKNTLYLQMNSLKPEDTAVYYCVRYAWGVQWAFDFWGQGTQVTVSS VL: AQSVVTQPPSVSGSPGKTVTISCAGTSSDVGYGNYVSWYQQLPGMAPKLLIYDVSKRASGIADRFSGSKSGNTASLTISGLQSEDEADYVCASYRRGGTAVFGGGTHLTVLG

Data returned:
1. 251000
2. 262000
3. 1.28e+06
